Molecular target: T1, human MCP-2 (human, UniProt P80075 24-99)
T1 construct: also called hMCP-2; huMCP-2
T1 sequence (looked up): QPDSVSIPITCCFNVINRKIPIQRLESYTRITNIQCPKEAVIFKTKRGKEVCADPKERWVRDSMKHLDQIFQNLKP
Test: KinExA, in solution, Fab
parameter: pKd
By convention, pKd is the negative base-10 log of a molar concentration.

Would you kindly share the measured pKd for Fab fragment of humanized 11K2 H1L1 (Fab, V domains shown) VH: QVQLVQSGAEVKKPGSSVKVSCKASGLNIKDTYMHWVRQAPGQGLEWIGRIDPANGNTKFDPKFQGRATITADTSTSTAYMELSSLRSEDTAVYYCARGVFGFFDYWGQGTTVTVSS VL: DIQMTQSPSSLSASVGDRVTITCKATEDIYNRLAWYQQKPGKAPKLLISGATSLETGVPSRFSGSGSGKDYTLTISSLQPEDFATYYCQQFWSAPYTFGGGTKVEIKR ?
9.14
